assay: Qualitative solubility screening; type: physicochemical; settings: organic solvent or mixture, thermodynamic from solid, solvent 1-Octanol; 50 mg in 4 mL; read-out: Solubility at Room Temp (RT)
measured parameter: solubility

Lab note: measured solubility of Br.CC(NC(C)(C)C)C(=O)c1cccc(Cl)c1 (stereo not shown) [Bupropion hydrobromide] was < 12.5 mg/mL

---

Test: Qualitative solubility screening
Assay type: physicochemical
Details: organic solvent or mixture, thermodynamic from solid, solvent 3-Pentanone; 50 mg in 4 mL; read-out: Solubility at Room Temp (RT)
Experimental: Bupropion hydrobromide (50 mg) was introduced in 4 mL of solvent under stirring for about 1 hour at room temperature. See Table 41 for the qualitative solubility data.
measured parameter: solubility

Lab note: measured solubility of Br.CC(NC(C)(C)C)C(=O)c1cccc(Cl)c1 (stereo not shown) [Bupropion hydrobromide] was < 12.5 mg/mL

Where do these numbers come from? They come from patent US8604085B2.
